# study system: FAAH (Rattus norvegicus)
# Construct: Preparation of Rat Brain Membranes Preparations (FAAH Enzyme Solution); from tissue; host or cells: rat cerebrum (brain membrane preparation)
# Sequence (P97612 1-579): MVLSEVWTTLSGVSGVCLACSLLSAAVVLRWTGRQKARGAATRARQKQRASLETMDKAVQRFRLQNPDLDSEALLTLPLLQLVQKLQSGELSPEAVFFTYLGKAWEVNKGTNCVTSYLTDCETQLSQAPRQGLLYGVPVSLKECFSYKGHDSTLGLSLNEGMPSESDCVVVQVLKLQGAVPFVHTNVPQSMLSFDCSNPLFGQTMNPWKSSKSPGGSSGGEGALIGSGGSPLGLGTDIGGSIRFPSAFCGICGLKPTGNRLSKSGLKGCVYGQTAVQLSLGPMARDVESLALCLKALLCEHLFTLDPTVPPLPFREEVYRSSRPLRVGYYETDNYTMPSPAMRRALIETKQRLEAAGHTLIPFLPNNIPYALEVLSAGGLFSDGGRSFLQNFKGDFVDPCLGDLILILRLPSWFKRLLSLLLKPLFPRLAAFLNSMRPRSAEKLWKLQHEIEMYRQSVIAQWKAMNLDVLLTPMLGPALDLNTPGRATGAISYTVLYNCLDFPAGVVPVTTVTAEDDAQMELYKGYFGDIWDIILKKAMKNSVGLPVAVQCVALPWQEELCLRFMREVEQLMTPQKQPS
# test: Determination of FAAH inhibitory activity in rat (rat brain membrane preparations, [3H]-anandamide hydrolysis)
# Type: biochemical
# reported conditions: rat brain membrane preparations; test substance 0.1 nM to 1 μM; read-out: FAAH Inhibition IC50
pIC50: −log10 of the molar value.
outcome measure: pIC50

# example entries with known answers
> print(dat)
                                   compound  reported.value
1  CCOCc1ncc2c(n1)n(C)c(=O)n2C(=O)N1CC(c2cccc(F)c2)C1            8.00
2  CN(CCc1ccc(Cl)cc1)C(=O)n1c(=O)n(C)c2nc(C3CC3)ncc21            7.57
3  COc1cccc(-c2ncc3c(n2)n(C)c(=O)n3C(=O)N2CCN(C3CCCCC3)CC2)c1            7.43
4  COc1cccc(-c2ncc3c(n2)n(C)c(=O)n3C(=O)N(C)C)c1            8.40
5  CCOc1ccc(-c2ncc3c(n2)n(C)c(=O)n3C(=O)N2CCCC2)cc1            8.00

[a] CN(C)C(=O)n1c(=O)n(C)c2cnc(CCc3cc(F)cc(F)c3)nc21 [Example 497]
[b] COCc1ncc2c(n1)n(C)c(=O)n2C(=O)N1CC[C@H](Oc2ccc(F)cc2)C1
Ask: Compare a and b by numeric pIC50 and name the larger one. Label of pick, please.
Reply: b
(b: 8.52, a: 7.60)

Reference source for all entries: patent US8735406B2
